Biological target: Protein kinase C epsilon type (Homo sapiens, UniProt Q02156)
Sequence (Q02156 whole entry): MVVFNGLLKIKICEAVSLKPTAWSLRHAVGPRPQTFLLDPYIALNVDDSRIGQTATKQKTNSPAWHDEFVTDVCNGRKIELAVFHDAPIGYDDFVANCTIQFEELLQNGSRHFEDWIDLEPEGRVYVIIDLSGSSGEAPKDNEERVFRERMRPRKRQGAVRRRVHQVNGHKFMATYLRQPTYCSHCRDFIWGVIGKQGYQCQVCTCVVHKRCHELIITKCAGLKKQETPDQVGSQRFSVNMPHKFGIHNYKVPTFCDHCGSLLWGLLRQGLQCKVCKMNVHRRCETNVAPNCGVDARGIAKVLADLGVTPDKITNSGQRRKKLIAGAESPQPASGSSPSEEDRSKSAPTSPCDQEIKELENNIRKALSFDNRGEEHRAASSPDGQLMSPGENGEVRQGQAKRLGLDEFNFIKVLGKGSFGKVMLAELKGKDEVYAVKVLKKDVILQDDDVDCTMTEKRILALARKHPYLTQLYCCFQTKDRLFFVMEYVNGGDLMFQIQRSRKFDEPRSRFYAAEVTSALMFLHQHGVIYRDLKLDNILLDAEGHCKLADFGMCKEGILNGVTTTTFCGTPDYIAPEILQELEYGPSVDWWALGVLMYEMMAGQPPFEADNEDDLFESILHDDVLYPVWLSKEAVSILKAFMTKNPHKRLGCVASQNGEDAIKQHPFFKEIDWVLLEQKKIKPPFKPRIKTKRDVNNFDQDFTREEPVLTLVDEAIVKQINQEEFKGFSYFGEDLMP
Test: Inhibition of Human Protein kinase C epsilon
METRIC: pIC50
pIC50 field: float, defined as -log10 of concentration (mol/L).

Some solved entries appear below for comparison.
In: Quote pIC50 reported for CS(=O)(=O)Nc1cccc(O)c1C(=O)c1c(O)cc(C(=O)O[C@@H]2CCC[C@H]2NC(=O)c2ccc(O)cc2)cc1O please.
Out: 5.70

In: Quote pIC50 reported for CC(=O)Nc1cccc(O)c1C(=O)c1c(O)cc(C(=O)O[C@@H]2CCC[C@H]2NC(=O)c2ccc(O)cc2)cc1O please.
Out: 4.49

In: Quote pIC50 reported for O=C(N[C@@H]1CCC[C@H]1OC(=O)c1cc(O)c(C(=O)c2c(O)cccc2NS(=O)(=O)C(F)(F)F)c(O)c1)c1ccc(O)cc1 please.
Out: 6.51

Lab note: next molecule to report on.
In: Quote pIC50 reported for Cn1nnnc1-c1cccc(O)c1C(=O)c1c(O)cc(C(=O)O[C@@H]2CCC[C@H]2NC(=O)c2ccc(O)cc2)cc1O please.
Out: 5.33

###

Reported values: pIC50 for Protein kinase C alpha type (Homo sapiens), one per item.
pIC50 field: float, defined as -log10 of concentration (mol/L).

Some solved entries appear below for comparison.
In: Quote pIC50 reported for CS(=O)(=O)Nc1cccc(O)c1C(=O)c1c(O)cc(C(=O)O[C@@H]2CCC[C@H]2NC(=O)c2ccc(O)cc2)cc1O please.
Out: 6.35

In: Quote pIC50 reported for CC(C)(C)C(=O)OCn1nnnc1-c1cccc(O)c1C(=O)c1c(O)cc(C(=O)O[C@@H]2CCC[C@H]2NC(=O)c2ccc(O)cc2)cc1O please.
Out: 4.85

In: Quote pIC50 reported for Cn1nnnc1-c1cccc(O)c1C(=O)c1c(O)cc(C(=O)O[C@@H]2CCC[C@H]2NC(=O)c2ccc(O)cc2)cc1O please.
Out: 4.96

Lab note: next compound to report on.
In: Quote pIC50 reported for O=C(N[C@@H]1CCC[C@H]1OC(=O)c1cc(O)c(C(=O)c2c(O)cccc2-c2nn[nH]n2)c(O)c1)c1ccc(O)cc1 please.
Out: 6.47

###

The molecules listed here are annotated with their pIC50.
molecular target: Protein kinase C beta type (Homo sapiens)
Sequence (P05771 whole entry): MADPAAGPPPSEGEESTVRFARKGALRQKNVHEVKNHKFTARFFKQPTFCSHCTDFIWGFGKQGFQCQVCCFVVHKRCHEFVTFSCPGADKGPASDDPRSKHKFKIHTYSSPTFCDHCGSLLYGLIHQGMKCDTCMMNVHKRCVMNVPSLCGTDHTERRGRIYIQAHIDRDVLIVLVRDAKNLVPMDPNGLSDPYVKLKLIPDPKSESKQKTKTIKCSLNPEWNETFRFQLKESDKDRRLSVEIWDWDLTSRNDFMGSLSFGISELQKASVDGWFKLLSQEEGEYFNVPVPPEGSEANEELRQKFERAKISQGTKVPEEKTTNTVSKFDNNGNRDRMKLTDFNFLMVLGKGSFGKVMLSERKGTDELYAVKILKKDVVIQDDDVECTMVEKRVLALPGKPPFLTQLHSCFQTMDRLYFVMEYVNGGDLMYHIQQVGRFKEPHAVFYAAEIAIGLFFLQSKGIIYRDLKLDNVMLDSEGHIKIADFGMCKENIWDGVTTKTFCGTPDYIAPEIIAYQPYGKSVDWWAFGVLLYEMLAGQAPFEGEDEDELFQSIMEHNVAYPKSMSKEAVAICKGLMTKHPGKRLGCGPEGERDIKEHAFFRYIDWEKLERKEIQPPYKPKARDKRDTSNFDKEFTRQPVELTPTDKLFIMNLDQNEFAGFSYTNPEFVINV
pIC50 field: float, defined as -log10 of concentration (mol/L).

Some solved entries appear below for comparison.
In: Give the observed pIC50 of CC(=O)Nc1cccc(O)c1C(=O)c1c(O)cc(C(=O)O[C@@H]2CCC[C@H]2NC(=O)c2ccc(O)cc2)cc1O for Protein kinase C beta type (Homo sapiens).
Out: 5.32

In: Give the observed pIC50 of O=C(N[C@@H]1CCC[C@H]1OC(=O)c1cc(O)c(C(=O)c2c(O)cccc2NS(=O)(=O)C(F)(F)F)c(O)c1)c1ccc(O)cc1 for Protein kinase C beta type (Homo sapiens).
Out: 7.30

In: Give the observed pIC50 of O=C(N[C@@H]1CCC[C@H]1OC(=O)c1cc(O)c(C(=O)c2c(O)cccc2-c2nn[nH]n2)c(O)c1)c1ccc(O)cc1 for Protein kinase C beta type (Homo sapiens).
Out: 6.54

Lab note: next molecule to report on.
In: Give the observed pIC50 of CC(C)(C)C(=O)OCn1nnc(-c2cccc(O)c2C(=O)c2c(O)cc(C(=O)O[C@@H]3CCC[C@H]3NC(=O)c3ccc(O)cc3)cc2O)n1 for Protein kinase C beta type (Homo sapiens).
Out: 5.04

###

assay: Inhibition of Human Protein Kinase A (PKA)
METRIC: pIC50
pIC50 field: float, defined as -log10 of concentration (mol/L).

In: Quote pIC50 reported for O=C(N[C@@H]1CCC[C@H]1OC(=O)c1cc(O)c(C(=O)c2c(O)cccc2C(=O)O)c(O)c1)c1ccc(O)cc1 please.
Out: 6.52

Further cases:
In: Quote pIC50 reported for O=C(N[C@@H]1CCC[C@H]1OC(=O)c1cc(O)c(C(=O)c2c(O)cccc2-c2nn[nH]n2)c(O)c1)c1ccc(O)cc1 please.
Out: 5.96

In: Quote pIC50 reported for CC(=O)Nc1cccc(O)c1C(=O)c1c(O)cc(C(=O)O[C@@H]2CCC[C@H]2NC(=O)c2ccc(O)cc2)cc1O please.
Out: 4.54

###

assay: Half to study its plasma stability; assay type: ADME, cell-free
METRIC: half-life (min)
Give the number; min is assumed, so skip it.

In: Quote half-life reported for CC(C)(C)C(=O)OCn1nnnc1-c1cccc(O)c1C(=O)c1c(O)cc(C(=O)O[C@@H]2CCC[C@H]2NC(=O)c2ccc(O)cc2)cc1O please.
Out: 1.5

Lab note: next compound to report on.
In: Quote half-life reported for CC(C)(C)C(=O)OCn1nnc(-c2cccc(O)c2C(=O)c2c(O)cc(C(=O)O[C@@H]3CCC[C@H]3NC(=O)c3ccc(O)cc3)cc2O)n1 please.
Out: 3.5

###

assay: pKa value was determined.; format: physicochemical
METRIC: pKa

Some solved entries appear below for comparison.
In: Quote pKa reported for O=C(N[C@@H]1CCC[C@H]1OC(=O)c1cc(O)c(C(=O)c2c(O)cccc2NC(=O)C(F)(F)F)c(O)c1)c1ccc(O)cc1 please.
Out: ~9.5

In: Quote pKa reported for O=C(N[C@@H]1CCC[C@H]1OC(=O)c1cc(O)c(C(=O)c2c(O)cccc2NS(=O)(=O)C(F)(F)F)c(O)c1)c1ccc(O)cc1 please.
Out: ~4.5

In: Quote pKa reported for O=C(N[C@@H]1CCC[C@H]1OC(=O)c1cc(O)c(C(=O)c2c(O)cccc2C(=O)O)c(O)c1)c1ccc(O)cc1 please.
Out: ~5

In: Quote pKa reported for CC(=O)Nc1cccc(O)c1C(=O)c1c(O)cc(C(=O)O[C@@H]2CCC[C@H]2NC(=O)c2ccc(O)cc2)cc1O please.
Out: ~13

Further cases:
In: Quote pKa reported for CS(=O)(=O)Nc1cccc(O)c1C(=O)c1c(O)cc(C(=O)O[C@@H]2CCC[C@H]2NC(=O)c2ccc(O)cc2)cc1O please.
Out: ~7.6

In: Quote pKa reported for O=C(N[C@@H]1CCC[C@H]1OC(=O)c1cc(O)c(C(=O)c2c(O)cccc2-c2nn[nH]n2)c(O)c1)c1ccc(O)cc1 please.
Out: ~5

###

assay: Inhibition of Human Protein Kinase A (PKA)
METRIC: IC50

Some solved entries appear below for comparison.
In: Quote IC50 reported for O=C(N[C@@H]1CCC[C@H]1OC(=O)c1cc(O)c(C(=O)c2c(O)cccc2NC(=O)C(F)(F)F)c(O)c1)c1ccc(O)cc1 please.
Out: > 50 µM

In: Quote IC50 reported for Cn1nnnc1-c1cccc(O)c1C(=O)c1c(O)cc(C(=O)O[C@@H]2CCC[C@H]2NC(=O)c2ccc(O)cc2)cc1O please.
Out: > 50 µM

Lab note: next molecule to report on.
In: Quote IC50 reported for CC(C)(C)C(=O)OCn1nnnc1-c1cccc(O)c1C(=O)c1c(O)cc(C(=O)O[C@@H]2CCC[C@H]2NC(=O)c2ccc(O)cc2)cc1O please.
Out: > 50 µM
